Just for reference, paper PMC3311629 is where these values come from.

Square brackets hold non-standard residues; d marks the D form. Peptide text beside a SMILES is read from it.
Notes on pKi obtained with factor Xa (Homo sapiens, UniProt P00742).
Sequence (P00742 235-488 limits assumed): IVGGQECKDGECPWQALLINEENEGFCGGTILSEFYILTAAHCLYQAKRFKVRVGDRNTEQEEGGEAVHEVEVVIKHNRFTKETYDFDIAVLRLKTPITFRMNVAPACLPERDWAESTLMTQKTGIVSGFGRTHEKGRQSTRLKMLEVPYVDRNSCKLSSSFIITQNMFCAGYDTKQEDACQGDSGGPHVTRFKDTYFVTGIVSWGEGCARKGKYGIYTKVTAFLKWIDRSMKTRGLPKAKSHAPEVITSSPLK
Sequence (P00742 41-179 partner limits assumed): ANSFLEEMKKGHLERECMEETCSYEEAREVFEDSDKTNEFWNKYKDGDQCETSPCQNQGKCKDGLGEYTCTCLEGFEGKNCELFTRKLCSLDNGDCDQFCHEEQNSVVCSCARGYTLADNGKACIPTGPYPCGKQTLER
In textbook form, pKi equals minus log to base ten of the concentration in mol/L.

Worked set:
N=C(N)NCCC[C@@H](NC(=O)[C@@H]1CCCN1C(=O)[C@H](N)Cc1ccccc1)C(=O)N[C@@H](CS)C(N)=O [Peptide 19, D-Phe-Pro-D-Arg-Cys] (H-[dF]P[dR]C-NH2) = 4.38
CC[C@H](C)[C@H](NC(=O)[C@@H](CCCNC(=N)N)NC(=O)[C@@H]1CCCN1C(=O)[C@H](N)Cc1ccccc1)C(N)=O [Peptide 23, D-Phe-Pro-D-Arg-Ile] (H-[dF]P[dR]I-NH2) = 2.14

# input for lookup
Problem: Given C[C@H](O)[C@@H](NC(=O)[C@@H](CCCNC(=N)N)NC(=O)[C@@H]1CCCN1C(=O)[C@H](N)Cc1ccccc1)C(N)=O [Peptide 16, D-Phe-Pro-D-Arg-D-Thr] (H-[dF]P[dR][dT]-NH2) , report its pKi on factor Xa (Homo sapiens, UniProt P00742).
Result: 3.99

* * *

Notes on Ki obtained with bovine α-thrombin (Bos taurus, UniProt P00735).
Square brackets hold non-standard residues; d marks the D form. Peptide text beside a SMILES is read from it.
The reply should contain only the number, in µM.

Worked set:
N=C(N)NCCC[C@@H](NC(=O)[C@@H]1CCCN1C(=O)[C@H](N)Cc1ccccc1)C(=O)N[C@@H](Cc1ccccc1)C(N)=O [Peptide 8, D-Phe-Pro-D-Arg-Phe] (H-[dF]P[dR]F-NH2) = 250
C[C@H](NC(=O)[C@@H](CCCNC(=N)N)NC(=O)[C@@H]1CCCN1C(=O)[C@H](N)Cc1ccccc1)C(N)=O [Peptide 1, D-Phe-Pro-D-Arg-Ala] (H-[dF]P[dR]A-NH2; N-terminus assumed) = 16.6
CC(C)C[C@@H](NC(=O)[C@@H](CCCNC(=N)N)NC(=O)[C@@H]1CCCN1C(=O)[C@H](N)Cc1ccccc1)C(N)=O [Peptide 26, D-Phe-Pro-D-Arg-D-Leu] (H-[dF]P[dR][dL]-NH2) = 4.13
N=C(N)NCCC[C@@H](NC(=O)[C@@H]1CCCN1C(=O)[C@H](N)Cc1ccccc1)C(=O)N[C@@H](CS)C(N)=O [Peptide 19, D-Phe-Pro-D-Arg-Cys] (H-[dF]P[dR]C-NH2) = 16.5

Problem: Given N=C(N)NCCC[C@@H](NC(=O)[C@@H]1CCCN1C(=O)[C@H](N)Cc1ccccc1)C(=O)N[C@@H](CCC(N)=O)C(N)=O [Peptide 21, D-Phe-Pro-D-Arg-Gln] (H-[dF]P[dR]Q-NH2) , report its Ki on bovine α-thrombin (Bos taurus, UniProt P00735).
Result: 43.1

* * *

Property: pKi; scope: individual compounds
TESTED ON: UniProt:P00735
PROTOCOL TEXT: Inhibition of thrombin's hydrolytic activity towards chromogenic substrate S2238
Format: biochemical
RECORDED CONDITIONS: bovine α-thrombin 5 nM, 25°C, pH 7.46
Square brackets hold non-standard residues; d marks the D form. Peptide text beside a SMILES is read from it.
In textbook form, pKi equals minus log to base ten of the concentration in mol/L.

Worked set:
CC(C)[C@H](NC(=O)[C@@H](CCCNC(=N)N)NC(=O)[C@@H]1CCCN1C(=O)[C@H](N)Cc1ccccc1)C(N)=O [Peptide 13, D-Phe-Pro-D-Arg-Val] (H-[dF]P[dR]V-NH2) = 4.25
C[C@@H](NC(=O)[C@@H](CCCNC(=N)N)NC(=O)[C@@H]1CCCN1C(=O)[C@H](N)Cc1ccccc1)C(N)=O [Peptide 2, D-Phe-Pro-D-Arg-D-Ala] (H-[dF]P[dR][dA]-NH2) = 5.69
N=C(N)NCCC[C@@H](NC(=O)[C@@H]1CCCN1C(=O)[C@H](N)Cc1ccccc1)C(=O)N1CCC[C@H]1C(N)=O [Peptide 9, D-Phe-Pro-D-Arg-Pro] (H-[dF]P[dR]P-NH2) = 4.05
N=C(N)NCCC[C@@H](NC(=O)[C@@H]1CCCN1C(=O)[C@H](N)Cc1ccccc1)C(=O)N[C@@H](CCC(=O)O)C(N)=O [Peptide 6, D-Phe-Pro-D-Arg-Glu] (H-[dF]P[dR]E-NH2) = 3.26
N=C(N)NCCC[C@@H](NC(=O)[C@@H]1CCCN1C(=O)[C@H](N)Cc1ccccc1)C(=O)N[C@H](CCC(N)=O)C(N)=O [Peptide 22, D-Phe-Pro-D-Arg-D-Gln] (H-[dF]P[dR][dQ]-NH2) = 4.71
N=C(N)NCCC[C@@H](NC(=O)[C@@H]1CCCN1C(=O)[C@H](N)Cc1ccccc1)C(=O)NCC(N)=O [Peptide 3, D-Phe-Pro-D-Arg-Gly] (H-[dF]P[dR]G-NH2) = 5.23
CC[C@H](C)[C@H](NC(=O)[C@@H](CCCNC(=N)N)NC(=O)[C@@H]1CCCN1C(=O)[C@H](N)Cc1ccccc1)C(N)=O [Peptide 23, D-Phe-Pro-D-Arg-Ile] (H-[dF]P[dR]I-NH2) = 5.11
N=C(N)NCCC[C@@H](NC(=O)[C@@H]1CCCN1C(=O)[C@H](N)Cc1ccccc1)C(=O)N[C@H](CS)C(N)=O [Peptide 20, D-Phe-Pro-D-Arg-D-Cys] (H-[dF]P[dR][dC]-NH2) = 5.62

Problem: Supply pKi value. Item: CC(C)C[C@H](NC(=O)[C@@H](CCCNC(=N)N)NC(=O)[C@@H]1CCCN1C(=O)[C@H](N)Cc1ccccc1)C(N)=O [Peptide 25, D-Phe-Pro-D-Arg-Leu] (H-[dF]P[dR]L-NH2)
Result: 4.69

Problem: Supply pKi value. Item: N=C(N)NCCC[C@@H](NC(=O)[C@@H]1CCCN1C(=O)[C@H](N)Cc1ccccc1)C(=O)N[C@@H](Cc1c[nH]cn1)C(N)=O [Peptide 7, D-Phe-Pro-D-Arg-His] (H-[dF]P[dR]H-NH2)
Result: 3.91
